Entries and their pEC50 values follow.
Tested on: Feline herpes virus
Method notes: Anti-Feline Herpes Virus activity in CRFK cell cultures
Type: cell-based
Conditions used: CRFK, read-out: EC50 Feline herpes virus
pEC50: −log10 of the molar value.

A selection of reference data follows.
Note pEC50 for the molecule shown: `CCOC(=O)c1c(C)nc(NCCCCNc2ccnc3cc(Cl)ccc23)nc1-c1ccccc1[N+](=O)[O-]`
< 4.00

Answer with the recorded pEC50 for the molecule listed here: `CCOC(=O)c1c(C)nc(OCCCNc2ccnc3cc(Cl)ccc23)nc1-c1ccccc1`
< 4.00

Provide pEC50 value for the following molecule: `COC(=O)c1c(C)nc(NCCCNc2ccnc3cc(Cl)ccc23)nc1-c1ccccc1`
< 4.70

Next:
// fetch pEC50 given entry `Cc1nc(NCCCCNc2ccnc3cc(Cl)ccc23)nc(-c2ccccc2)c1C(=O)OC(C)C`
< 4.70

Give pEC50 for `CCOC(=O)c1c(C)nc(NCCCCNc2ccnc3cc(Cl)ccc23)nc1-c1ccc(Cl)cc1`
< 4.00

Quickly give me recorded pEC50 for `CCOC(=O)c1c(C)nc(NCCCCNc2ccnc3cc(Cl)ccc23)nc1-c1ccc(F)cc1`
< 4.00
